The measured values listed here are drawn from patent US4492693A.

- Tested on: Staph. epi
- test_protocol: Expanded Spectrum MIC (Table II)
- Assay type: cell-based
- assay_setup: strain 286

{"columns": ["compound", "MIC, µg/mL"],
 "data": [
  ["CC1=C(C(=O)O)N2C(=O)C(NC(=O)[C@H](N)c3csc4ccc(F)cc34)C2SC1 (stereo partly shown)", 1],
  ["CC1=C(C(=O)O)N2C(=O)C(NC(=O)[C@H](N)c3csc4c(F)cccc34)C2SC1 (stereo partly shown)", 1],
  ["CON=C(C(=O)NC1C(=O)N2C(C(=O)O)=C(C)CSC12)c1csc2cc(OC)ccc12 (stereo not shown)", 1],
  ["CC1=C(C(=O)O)N2C(=O)C(NC(=O)[C@H](N)c3csc4cc(F)ccc34)C2SC1 (stereo partly shown)", 0.25]
]}

###

- Tested on: Staph. aureus
- test_protocol: Expanded Spectrum MIC (Table II)
- Format: cell-based
- assay_setup: Staphylococcus aureus, strain S224
endpoint_name: MIC

{"columns": ["compound", "experimental_system", "endpoint_name", "value_reported"],
 "data": [
  ["CC1=C(C(=O)O)N2C(=O)C(NC(=O)[C@H](N)c3csc4c(F)cccc34)C2SC1 (some centres unmarked)", "Staph. aureus", "MIC", "2 µg/mL"],
  ["CC1=C(C(=O)O)N2C(=O)C(NC(=O)[C@H](N)c3csc4cccc(F)c34)C2SC1 (some centres unmarked)", "Staph. aureus", "MIC", "4 µg/mL"],
  ["CC1=C(C(=O)O)N2C(=O)C(NC(=O)[C@H](N)c3csc4ccc(F)cc34)C2SC1 (some centres unmarked)", "Staph. aureus", "MIC", "1 µg/mL"],
  ["CC1=C(C(=O)O)N2C(=O)C(NC(=O)C(N)c3csc4ccccc34)C2SC1 (centres unmarked)", "Staph. aureus", "MIC", "1 µg/mL"],
  ["CC1=C(C(=O)O)N2C(=O)C(NC(=O)[C@H](N)c3csc4cc(F)ccc34)C2SC1 (some centres unmarked)", "Staph. aureus", "MIC", "1 µg/mL"]
]}
